# Tested on: SW-620 colon
# Protocol Details: NCI-60 one-dose screen, 48 h
# Reported Conditions: 10 µM unless noted
Compounds without any hit were thinned out: in the full panel of roughly 83,000, 20% have a hit. Active and inactive are the calls of the source. The calls were made as follows: active = growth percent below 10; inactive = the rest.
Outcome codes: 1 = active, 0 = inactive

1. O=C(Nc1ccc(Oc2cccc(Cl)c2)c(Cl)c1)c1cccnc1 = 0
2. O=C(Nc1ccccc1)Nc1ncnc2c1ncn2-c1ccc(Cl)cc1 = 0
3. N#Cc1nc(-c2ccc(Cl)cc2)oc1S(=O)(=O)N1CCN(c2ccc(F)cc2)CC1 = 0
4. COCCNC(=O)Nc1ccc2nc(-c3cccs3)c(-c3cccs3)nc2c1 = 0
5. COc1cc(-c2nccc3[nH]c(-c4ccc5cc[nH]c5c4)nc23)cc(OC)c1OC = 1
6. N#Cc1c(-c2ccccc2)[nH]c2ncc(-c3ccccc3)n2c1=O = 0
7. CN(c1cc2ncc(=O)[nH]c2cc1NC(N)=NCc1ccc(Cl)cc1)C1CCCCC1 = 1
8. Cn1cc(-c2csc(-c3c[nH]c4ccccc34)n2)c2cnccc21 = 1
9. CCOC(=O)c1csc(NC(=O)COc2ccc(/C=C3\Oc4ccccc4C3=O)cc2)n1 = 0
10. CCN(CC)CCn1c2ccc(OC)cc2c2sc3cc(OC)ccc3c(=O)c21 = 1
11. CC(C)(Sc1cc(C(C)(C)C)c(OC(=O)CCCC(=O)O)c(C(C)(C)C)c1)Sc1cc(C(C)(C)C)c(OC(=O)CCCC(=O)O)c(C(C)(C)C)c1 = 0
12. CC(C)=CCC[C@](C)(O)[C@H]1CC[C@]2(C)[C@@H]1CC[C@@H]1[C@@]3(C)C/C(=C/c4ccco4)C(=O)C(C)(C)[C@@H]3CC[C@]12C = 0
13. CC/C(=C(/c1ccc(Cl)cc1)c1ccc(OCCN2CCCCC2)cc1)c1ccc(OC)cc1 = 0
14. CCCn1cc2c(=O)nc3sc(Cc4ccccc4)c(C)n3c2n1 = 0
15. COc1cc(-c2nc3sccn3c2-c2ccnc(NCCNS(=O)(=O)c3ccccc3)n2)ccc1F = 0
16. CCOc1nc(-c2ccccc2)cc2c(O)c(C(=O)N/N=C/c3ccccc3)[nH]c(=O)c12 = 0
17. Nc1ncnc2c1c(-c1cccc(Cl)c1)nn2CC(=O)N1CCOCC1 = 0
18. CCCCCCCCCCC(CN(CC)CC)C(O)c1ccccc1 (centres undefined) = 0
19. O=C1C(=O)N(Cc2ccc(-c3ccccc3)cc2)c2ccc(OC(F)(F)F)cc21 = 0
20. CCN(CC)CC(O)COc1c(Br)c(Br)c(Br)c2c1OC(C)(C)C2 (centres undefined) = 1
21. COc1ccc(Nc2ncc(Br)c(NCCCNC(=O)c3cccs3)n2)cc1 = 0
22. O=S(=O)(NCCNc1nccc(-c2c(-c3ccc(F)c(O)c3)nc3sccn23)n1)c1ccc(O)cc1 = 0
23. COc1cc(/C=C/C(=O)c2ccc(F)cc2)ccc1OCCCCOc1ccc(/C=C/C(=O)c2c(C)nc3ccccc3c2C)cc1OC = 0
24. COc1ccc(C(=O)c2cc3c(N)c(C(=O)Nc4ccc(C)cc4)sc3nc2C)cc1 = 0
25. O=C1/C(=C/c2cn(-c3ccccc3)nc2-c2ccccc2)SC(=S)N1C1CCCCC1 = 0
26. N#CC1=C(N)Oc2c(c(=O)[nH]c3ccc(Cl)cc23)C12C(=O)c1ccccc1C2=O = 0
27. N#CC1=C(N)Oc2c(ccc3ccccc23)C1c1ccccc1 (centres undefined) = 0
28. OB1OCc2cc(/C=C/c3cccc(C(F)(F)F)c3)ccc21 = 0
29. CCOC(=O)n1ccn(C)c1=S = 0
30. COc1ccc(C/C(C)=C(\c2ccc(Cl)cc2)c2ccc(OCCN3CCCCC3)cc2)cc1 = 0
31. Clc1ccc2c(NC3CCC(N4CCOCC4)CC3)ccnc2c1 (centres undefined) = 0
32. CC(=O)N1N=C(c2ccc(Nc3nc(Nc4ccccc4)nc(Nc4ccccc4)n3)cc2)CC1c1cccc([N+](=O)[O-])c1 (centres undefined) = 0
33. COC(=O)CC[C@@H]1O[C@@H](c2cccc(C(F)(F)F)c2)[C@@H](O)[C@H]1O = 0
34. Cc1cc(N2CCN(CCNc3ccnc4cc(Cl)ccc34)CC2)nc(N2CCOCC2)n1 = 0
35. CCOC(=O)C1=C(C)NC(=O)NC1c1c(Cl)n(CCCl)c2ccccc12 (centres undefined) = 0
36. Cc1nc2sc(C(=O)Nc3ccc(Br)cc3)c(N)c2cc1C(O)c1ccccc1 (centres undefined) = 0
37. CCCCNC(=O)CC1=C(C)/C(=C/c2[nH]c(-c3ccc[nH]3)cc2OC)N=C1C = 0
38. CCN1C(=S)N(c2ccccc2)C2C1NN=c1s/c(=C3\C(=O)N(C(C)C)c4ccccc43)c(=O)n12 (centres undefined) = 0
39. COC(=O)C1Cc2ccccc2CN1C(=O)c1ccc2c(c1)Cc1ccccc1-2 (centres undefined) = 0
